assay: qHTS for identification of novel therapeutic agents for treatment of microphthalmiaassociated transcription factor (MiT) renal cell carcinoma (RCC) (AID 1963991); conditions: TFE3-RCC viability, CellTiter-Glo, 48 h; measured here: UOK145 Z-AUC; stronger effect = lower value
Results filed as inconclusive are left out.
The label is True for z-score below 0.2 and False for z-score equal to or exceeding 0.2.

COMPOUND | CATEGORY_LABEL
C#CC1(O)CCC2C3CCC4=CC(=O)CCC4(C)C3CCC21C (stereo not given) | True
CC(=Cc1csc(C)n1)[C@@H]1C[C@H]2O[C@@H]2CCC[C@H](C)[C@@H](O)[C@@H](C)C(=O)C(C)(C)[C@@H](O)CC(=O)O1 | True
CC(O)=C(C#N)C(=O)Nc1cc(Br)ccc1Br | False
O=C(Nc1ccncc1)C(=O)c1cn(Cc2ccc(Cl)cc2)c2ccccc12 | True
CC(C)N(CCNC(=O)CN1CCCC1=O)C(C)C | False
COc1cccc2c1[C@]13CCN(CC4CC4)[C@H](C2)[C@]1(OC)CCC(=O)C3 | False
O=S(=O)(F)Cc1ccccc1 | False
Clc1ccccc1C(c1ccccc1)(c1ccccc1)n1cccn1 | True
C[C@@]12OC(=O)[C@]1([C@@H](O)[C@@H]1C=CCCC1)NC(=O)[C@H]2CCCl | True
CC1=NN=C(c2ccc(N)cc2)c2cc3c(cc2C1)OCO3 | False
